Tested on: 217524-143-R1-J4-PDC spheroids with HUVEC/MSC, viability;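 note: spheroids exposed to agents for seven days before reading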
Assay: Anticancer human tumor 217524-143-R1-J4-PDC patient-derived pancreatic carcinoma cell line growth inhibition [CLK]; active = viability on the fitted dose curve at most 10% of control; inactive = the rest
Conditions: second compound 1 µM; first compound 0.01 µM
Mark one answer only. Choices: True for active, False for inactive

COMPOUND	TARGET_UNDER_TEST	CATEGORY
CCN1CCN(Cc2ccc(Nc3ncc(F)c(-c4cc(F)c5nc(C)n(C(C)C)c5c4)n3)nc2)CC1 + CNC(=O)c1ccc(Nc2nc(OC3CCCC3)c3c(-c4ccc5nc(C)oc5c4)c[nH]c3n2)c(OC)c1	217524-143-R1-J4-PDC spheroids with HUVEC/MSC, viability	False
Cn1ncnc1[C@H]1c2n[nH]c(=O)c3cc(F)cc(c23)N[C@@H]1c1ccc(F)cc1 + CNC(=O)c1ccc(Nc2nc(OC3CCCC3)c3c(-c4ccc5nc(C)oc5c4)c[nH]c3n2)c(OC)c1	217524-143-R1-J4-PDC spheroids with HUVEC/MSC, viability	False

Just curious, what result did COc1c(OCCCN2CCOCC2)ccc2c3n(c(=NC(=O)c4cnc(N)nc4)nc12)CCN3 + CN1CCN(c2cc(C(=O)Nc3cc4cc(-c5cnn(C)c5)ccc4cn3)ccn2)CC1 get here?
True
